tested on: A-375; assay: Cytotoxicity against human A375 cells after 72 hrs by MTT assay; format: functional, cell-based; conditions: A-375, 72 h
Quantity kind: pIC50
The quantity pIC50 is defined as the negative base-10 logarithm of the molar concentration.

Below are worked cases with known answers.
>>> value_measured("C[C@H]1[C@H](C)CC[C@@]23CC[C@]4(C)[C@](OC2=O)([C@H](F)C[C@@H]2[C@@]5(C)C(C=O)=C[C@@](C)(COC(=O)/C=C/c6ccccc6)[C@@H]5CC[C@]24C)[C@H]13")
6.14
>>> value_measured("CCCC(=O)OC[C@]1(C)C=C(C=O)[C@@]2(C)[C@H]1CC[C@]1(C)[C@@H]2C[C@@H](F)[C@]23OC(=O)[C@@]4(CC[C@@H](C)[C@H](C)[C@H]42)CC[C@]31C")
5.99
>>> value_measured("C[C@H]1[C@H](C)CC[C@]2(C(=O)O)CC[C@]3(C)C(=CC[C@@H]4[C@@]5(C)C[C@@H](O)[C@H](O)[C@@](C)(CO)[C@@H]5CC[C@]43C)[C@H]12 [ASIATIC ACID]")
4.30

Given the compound C[C@H]1[C@H](C)CC[C@@]23CC[C@]4(C)[C@](OC2=O)([C@H](F)C[C@@H]2[C@@]5(C)C(C=O)=C[C@@](C)(COC(=O)c6ccccc6)[C@@H]5CC[C@]24C)[C@H]13 , what is its reported pIC50?
6.02

----------
tested on: PC-3; assay: Cytotoxicity against human PC3 cells after 72 hrs by MTT assay; type: functional, cell-based
Quantity kind: Activity

Here is how some compounds turned out for Activity.
>>> value_measured("CC(=O)OC[C@@]1(C)[C@@H]2CC[C@]3(C)[C@H](C[C@@H](F)[C@]45OC(=O)[C@@]6(CC[C@@H](C)[C@H](C)[C@H]64)CC[C@]53C)[C@@]2(C)C[C@@H](OC(C)=O)[C@@H]1OC(C)=O")
"Dose-dependent effect"
>>> value_measured("COC(=O)[C@H](C)N1C(=O)[C@]23CC[C@@H](C)[C@H](C)[C@H]2[C@]12[C@H](F)C[C@@H]1[C@@]4(C)C[C@@H](OC(C)=O)[C@H](OC(C)=O)[C@@](C)(COC(C)=O)[C@@H]4CC[C@@]1(C)[C@]2(C)CC3")
"Dose-dependent effect"
>>> value_measured("C[C@H]1[C@H](C)CC[C@@]23CC[C@]4(C)[C@](OC2=O)([C@H](F)C[C@@H]2[C@@]5(C)C(C=O)=C[C@@](C)(COC(=O)n6ccnc6)[C@@H]5CC[C@]24C)[C@H]13")
"Dose-dependent effect"
>>> value_measured("CCCC(=O)OC[C@@]1(C)[C@@H]2CC[C@]3(C)[C@H](C[C@@H](F)[C@]45OC(=O)[C@@]6(CC[C@@H](C)[C@H](C)[C@H]64)CC[C@]53C)[C@@]2(C)C[C@@H](OC(=O)CCC)[C@@H]1OC(=O)CCC")
"Dose-dependent effect"
>>> value_measured("CC(=O)OC[C@@]1(C)[C@@H]2CC[C@]3(C)[C@H](C[C@@H](F)[C@]45NC(=O)[C@@]6(CC[C@@H](C)[C@H](C)[C@H]64)CC[C@]53C)[C@@]2(C)C[C@@H](OC(C)=O)[C@@H]1OC(C)=O")
"Dose-dependent effect"

What value of Activity has been recorded for this entry: Cc1nccn1C(=O)OC[C@]1(C)C=C(C=O)[C@@]2(C)[C@H]1CC[C@]1(C)[C@@H]2C[C@@H](F)[C@]23OC(=O)[C@@]4(CC[C@@H](C)[C@H](C)[C@H]42)CC[C@]31C
Dose-dependent effect

Recorded Activity of C[C@H]1[C@H](C)CC[C@@]23CC[C@]4(C)[C@](OC2=O)([C@H](F)C[C@@H]2[C@@]5(C)C(C=O)=C[C@@](C)(COC(=O)CCC(=O)O)[C@@H]5CC[C@]24C)[C@H]13 , please.
Dose-dependent effect

Fill in: Activity of CC(=O)OC[C@]1(C)C=C(C=O)[C@@]2(C)[C@H]1CC[C@]1(C)[C@@H]2C[C@@H](F)[C@]23OC(=O)[C@@]4(CC[C@@H](C)[C@H](C)[C@H]42)CC[C@]31C is ___
Dose-dependent effect

Entry C[C@H]1[C@H](C)CC[C@]2(C(=O)O)CC[C@]3(C)C(=CC[C@@H]4[C@@]5(C)C[C@@H](O)[C@H](O)[C@@](C)(CO)[C@@H]5CC[C@]43C)[C@H]12 [ASIATIC ACID] has what Activity?
Dose-dependent effect

----------
tested on: BJ; test: Cytotoxicity against human BJ cells after 72 hrs by MTT assay; type: cell-based; conditions: human, bj
Quantity kind: Activity

The examples below pair each entry with its known result.
>>> value_measured("CC(=O)OC[C@@]1(C)[C@@H]2CC[C@]3(C)[C@H](CC=C4[C@@H]5[C@@H](C)[C@H](C)CC[C@]5(C(=O)O)CC[C@]43C)[C@@]2(C)C[C@@H](OC(C)=O)[C@@H]1OC(C)=O")
"Dose-dependent effect"
>>> value_measured("CNC(=O)[C@]12CC[C@@H](C)[C@H](C)[C@H]1C1=CC[C@@H]3[C@@]4(C)C[C@@H](OC(C)=O)[C@H](OC(C)=O)[C@@](C)(COC(C)=O)[C@@H]4CC[C@@]3(C)[C@]1(C)CC2")
"Dose-dependent effect"
>>> value_measured("COC(=O)[C@H](C)NC(=O)[C@]12CC[C@@H](C)[C@H](C)[C@H]1C1=CC[C@@H]3[C@@]4(C)C[C@@H](OC(C)=O)[C@H](OC(C)=O)[C@@](C)(COC(C)=O)[C@@H]4CC[C@@]3(C)[C@]1(C)CC2")
"Dose-dependent effect"
>>> value_measured("CC(=O)OC[C@@]1(C)[C@@H]2CC[C@]3(C)[C@H](C[C@@H](F)[C@]45NC(=O)[C@@]6(CC[C@@H](C)[C@H](C)[C@H]64)CC[C@]53C)[C@@]2(C)C[C@@H](OC(C)=O)[C@@H]1OC(C)=O")
"Dose-dependent effect"

Now, please, on to the next compound.
Entry C[C@H]1[C@H](C)CC[C@@]23CC[C@]4(C)[C@](OC2=O)([C@H](F)C[C@@H]2[C@@]5(C)C[C@@H](O)OC[C@](C)(C=O)[C@@H]5CC[C@]24C)[C@H]13 , system BJ: what Activity was measured?
Dose-dependent effect

----------
tested on: HeLa; assay: Cytotoxicity against human HeLa cells after 72 hrs by MTT assay; assay type: functional, cell-based
Reported pIC50 values are given for each entry in this list.
Note on units: pIC50 is unitless, being -log10 of a concentration expressed in mol/L.

Here's what some known entries look like.
>>> value_measured("COC(=O)[C@H](C)N1C(=O)[C@]23CC[C@@H](C)[C@H](C)[C@H]2[C@]12[C@H](F)C[C@@H]1[C@@]4(C)C[C@@H](OC(C)=O)[C@H](OC(C)=O)[C@@](C)(COC(C)=O)[C@@H]4CC[C@@]1(C)[C@]2(C)CC3")
5.40
>>> value_measured("C[C@H]1[C@H](C)CC[C@]2(C(=O)O)CC[C@]3(C)C(=CC[C@@H]4[C@@]5(C)C[C@@H](O)[C@H](O)[C@@](C)(CO)[C@@H]5CC[C@]43C)[C@H]12")
4.28
>>> value_measured("C[C@H]1[C@H](C)CC[C@@]23CC[C@]4(C)[C@](OC2=O)([C@H](F)C[C@@H]2[C@@]5(C)C(C#N)=C[C@@](C)(CO)[C@@H]5CC[C@]24C)[C@H]13")
5.12
>>> value_measured("CCCC(=O)OC[C@@]1(C)[C@@H]2CC[C@]3(C)[C@H](C[C@@H](F)[C@]45OC(=O)[C@@]6(CC[C@@H](C)[C@H](C)[C@H]64)CC[C@]53C)[C@@]2(C)C[C@@H](OC(=O)CCC)[C@@H]1OC(=O)CCC")
5.30

Name the recorded pIC50 for C[C@H]1[C@H](C)CC[C@@]23CC[C@]4(C)[C@](OC2=O)([C@H](F)C[C@@H]2[C@@]5(C)C(C=O)=C[C@@](C)(COC(=O)/C=C/c6ccccc6)[C@@H]5CC[C@]24C)[C@H]13 .
6.17

----------
tested on: HeLa; test: Cytotoxicity against human HeLa cells after 72 hrs by MTT assay; format: functional, cell-based
Quantity kind: IC50

Reference set (2 entries):
>>> value_measured("CNC(=O)[C@]12CC[C@@H](C)[C@H](C)[C@H]1C1=CC[C@@H]3[C@@]4(C)C[C@@H](OC(C)=O)[C@H](OC(C)=O)[C@@](C)(COC(C)=O)[C@@H]4CC[C@@]3(C)[C@]1(C)CC2")
"1100 nM"
>>> value_measured("CC(=O)OC[C@@]1(C)[C@@H]2CC[C@]3(C)[C@H](C[C@@H](F)[C@]45OC(=O)[C@@]6(CC[C@@H](C)[C@H](C)[C@H]64)CC[C@]53C)[C@@]2(C)CC(=O)[C@@H]1OC(C)=O")
"11700 nM"

Recorded IC50 of CC(=O)OC[C@@]1(C)[C@@H]2CC[C@]3(C)[C@H](C[C@@H](F)[C@]45NC(=O)[C@@]6(CC[C@@H](C)[C@H](C)[C@H]64)CC[C@]53C)[C@@]2(C)C[C@@H](OC(C)=O)[C@@H]1OC(C)=O , please.
2370 nM

Tell me the measured IC50 of C[C@H]1[C@H](C)CC[C@@]23CC[C@]4(C)[C@](OC2=O)([C@H](F)C[C@@H]2[C@@]5(C)C[C@@H](O)[C@H](O)[C@@](C)(CO)[C@@H]5CC[C@]24C)[C@H]13 , please.
60200 nM

Could you tell me which IC50 is on file for C[C@H]1[C@H](C)CC[C@@]23CC[C@]4(C)[C@](OC2=O)([C@H](F)C[C@@H]2[C@@]5(C)C(C=O)=C[C@@](C)(CO)[C@@H]5CC[C@]24C)[C@H]13 ?
1080 nM
